System: UO-31 renal
Test: NCI tumour cell line growth inhibition, 48 h
Readings of GI50 for the listed molecules

Please review the entries below; each comes with its answer.
molecule | GI50
CC(=O)c1cc(C(=O)c2ccc3c(c2)Sc2ccccc2N3)c2c(C)cc(C)cn12 | 635 nM
Nc1nc(OCc2cc(Br)cs2)c2[nH]cnc2n1 | 11100 nM

Record `Nc1nc2c(s1)CCc1c-2c(Br)n(Cc2ccccc2)c1Br` ; system UO-31 renal; GI50 = 1800 nM

Tested system UO-31 renal; GI50 recorded for CCN1C(=O)N(CC)C2Nn3c(s/c(=C\c4ccccc4Br)c3=O)=NC21 (centres undefined) was 2000 nM
